Cited source: patent US9359308B2

- ASSAY_TARGET: full length active recombinant SYK enzyme (Homo sapiens, UniProt P43405)
- Construct: full length active recombinant SYK enzyme (Millipore, Calif.)
- MEASUREMENT_DESCRIPTION: Inhibition of Syk tyrosine phosphorylation activity (LANCE TR-FRET kinase assay)
- ASSAY_CONDITIONS: activity in the Syk assays, class symbols
ENDPOINT_LABEL: IC50

## Task What value of IC50 has been reported for the following molecule? NC(=O)c1ncc(N[C@@H]2CCCC[C@@H]2N)nc1Nc1ccnnc1
## Result 10 to 100 nM

## Task // same read-out, input: CN(C)C(=O)c1ccc(F)c(Nc2nc(N[C@@H]3CCCC[C@@H]3N)cnc2C(N)=O)c1
## Result 100 to 1000 nM

## Task // same read-out, input: N#Cc1ccc(Nc2nc(N[C@@H]3CCCC[C@@H]3N)cnc2C(N)=O)cn1
## Result 10 to 100 nM

## Task // same read-out, input: NC(=O)c1ncc(N[C@@H]2CCCC[C@@H]2N)nc1Nc1cc(-n2cccn2)cc(-n2cccn2)c1
## Result 1 to 10 nM
